Sourced from PubChem BioAssay AID2060493

# Test system: 616215-338-R-J1-PDC tumor spheroids, viability
# assayOverview: Anticancer human tumor 616215-338-R-J1-PDC patient-derived colon adenocarcinoma cell line growth inhibition [GQUAD]
# protocolConditions: second compound 0.0316 µM; first compound 1 µM; active compounds read low; spheroids with HUVEC and MSC
measure: viability, T/C (%)

>  <molecule>
O=c1[nH]cc(F)c(=O)[nH]1 + Cc1cnc(CNC(=O)c2c(=O)c3ccc(N4CCCN(C)CC4)nc3n3c2sc2ccccc23)cn1

>  <measurement>
51.5

$$$$
>  <molecule>
COc1ncnc(C2CC2)c1-c1ncc2cnn(Cc3ccc(-c4nc(C(F)(F)F)cn4C(C)C)cc3)c2n1 + Cc1cnc(CNC(=O)c2c(=O)c3ccc(N4CCCN(C)CC4)nc3n3c2sc2ccccc23)cn1

>  <measurement>
97.2

$$$$
>  <molecule>
CC(=O)O[C@H]1C(=O)[C@@]2(C)[C@H]([C@H](OC(=O)c3ccccc3)[C@]3(O)C[C@H](OC(=O)[C@H](O)[C@@H](NC(=O)c4ccccc4)c4ccccc4)C(C)=C1C3(C)C)[C@]1(OC(C)=O)CO[C@@H]1C[C@@H]2O + Cc1[nH]c2ccc(F)cc2c1-c1nc2c3cccnc3c3ncccc3c2[nH]1

>  <measurement>
14.5

$$$$
>  <molecule>
Cc1cccc(N(C)C(=O)C2C(O)CCN2c2nc(C)cc(C(F)(F)F)c2C#N)c1 (stereo not given) + CN(C)c1ccc(Nc2c3ccc(NC(=O)CCN4CCCC4)cc3nc3cc(NC(=O)CCN4CCCC4)ccc23)cc1

>  <measurement>
103

$$$$
>  <molecule>
CC1COCCN1c1cc(C2(S(C)(=N)=O)CC2)nc(-c2ccnc3[nH]ccc23)n1 (stereo not given) + CN(C)c1ccc(Nc2c3ccc(NC(=O)CCN4CCCC4)cc3nc3cc(NC(=O)CCN4CCCC4)ccc23)cc1

>  <measurement>
97.6

$$$$

* * *

# System: 616215-338-R-J1-PDC tumor spheroids, viability
# assayOverview: Anticancer human tumor 616215-338-R-J1-PDC cell line growth inhibition [GQUAD];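 note: spheroids exposed to agents for 7 days before readout; percent viability relative to DMSO vehicle control wells taken as 100%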
# protocolConditions: second compound 10 µM; first compound 0.0316 µM; active compounds read low; spheroids with HUVEC and MSC
Some compounds, each annotated with its measured viability, T/C.
measure: viability, T/C

>  <compound>
CC(C)(O)C1CCC(Nc2ccc3ncc(-c4cccc(C(F)(F)F)c4)n3n2)CC1 (stereo not given) + Cc1[nH]c2ccc(F)cc2c1-c1nc2c3cccnc3c3ncccc3c2[nH]1

>  <measure>
viability, T/C

>  <measurement>
90.1%

$$$$
>  <compound>
COc1cccc2c1C(=O)c1c(O)c3c(c(O)c1C2=O)CC(O)(C(=O)CO)CC3OC1CC(N)C(O)C(C)O1 (stereo not given) + CN(C)c1ccc(Nc2c3ccc(NC(=O)CCN4CCCC4)cc3nc3cc(NC(=O)CCN4CCCC4)ccc23)cc1

>  <measure>
viability, T/C

>  <measurement>
101%

$$$$
>  <compound>
CC[C@@]1(O)C(=O)OCc2c1cc1n(c2=O)Cc2cc3c(CN(C)C)c(O)ccc3nc2-1 + Cc1[nH]c2ccc(F)cc2c1-c1nc2c3cccnc3c3ncccc3c2[nH]1

>  <measure>
viability, T/C

>  <measurement>
94.5%

$$$$
>  <compound>
O=C(c1cc(Cc2n[nH]c(=O)c3ccccc23)ccc1F)N1CCN(C(=O)C2CC2)CC1 + CN(C)c1ccc(Nc2c3ccc(NC(=O)CCN4CCCC4)cc3nc3cc(NC(=O)CCN4CCCC4)ccc23)cc1

>  <measure>
viability, T/C

>  <measurement>
96.6%

$$$$
>  <compound>
O=c1[nH]cc(F)c(=O)[nH]1 + Cc1[nH]c2ccc(F)cc2c1-c1nc2c3cccnc3c3ncccc3c2[nH]1

>  <measure>
viability, T/C

>  <measurement>
102%

$$$$
>  <compound>
COc1ccc([C@@H](O)c2cc(-c3ncnc4cc(N5CCOCC5)ccc34)c(F)cc2Cl)nn1 + CN(C)c1ccc(Nc2c3ccc(NC(=O)CCN4CCCC4)cc3nc3cc(NC(=O)CCN4CCCC4)ccc23)cc1

>  <measure>
viability, T/C

>  <measurement>
91.3%

$$$$
>  <compound>
CC1COCCN1c1cc(-c2ccnn2C)c2ccnc(-c3ccn[nH]3)c2n1 (stereo not given) + Cc1cnc(CNC(=O)c2c(=O)c3ccc(N4CCCN(C)CC4)nc3n3c2sc2ccccc23)cn1

>  <measure>
viability, T/C

>  <measurement>
30.2%

$$$$
>  <compound>
Cc1cccc(N(C)C(=O)C2C(O)CCN2c2nc(C)cc(C(F)(F)F)c2C#N)c1 (stereo not given) + Cc1cnc(CNC(=O)c2c(=O)c3ccc(N4CCCN(C)CC4)nc3n3c2sc2ccccc23)cn1

>  <measure>
viability, T/C

>  <measurement>
30.5%

$$$$
>  <compound>
O=C(NO)c1cnc(N2CCN(S(=O)(=O)c3ccc4ccccc4c3)CC2)nc1 + CN(C)c1ccc(Nc2c3ccc(NC(=O)CCN4CCCC4)cc3nc3cc(NC(=O)CCN4CCCC4)ccc23)cc1

>  <measure>
viability, T/C

>  <measurement>
101%

$$$$
>  <compound>
CC(=O)O[C@H]1C(=O)[C@@]2(C)[C@H]([C@H](OC(=O)c3ccccc3)[C@]3(O)C[C@H](OC(=O)[C@H](O)[C@@H](NC(=O)c4ccccc4)c4ccccc4)C(C)=C1C3(C)C)[C@]1(OC(C)=O)CO[C@@H]1C[C@@H]2O + CN(C)c1ccc(Nc2c3ccc(NC(=O)CCN4CCCC4)cc3nc3cc(NC(=O)CCN4CCCC4)ccc23)cc1

>  <measure>
viability, T/C

>  <measurement>
26.2%

$$$$

* * *

# System: 616215-338-R-J1-PDC tumor spheroids, viability
# assayOverview: Anticancer human tumor 616215-338-R-J1-PDC cell line growth inhibition [GQUAD];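 note: spheroids exposed to agents for 7 days before readout; percent viability relative to DMSO vehicle control wells taken as 100%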
# protocolConditions: second compound 10 µM; first compound 0.00316 µM; active compounds read low; spheroids with HUVEC and MSC
Flag rule - viability, T/C less than 90% flags 1; the remaining entries get 0.

>  <molecule>
CCc1c2c(nc3ccc(O)cc13)-c1cc3c(c(=O)n1C2)COC(=O)[C@]3(O)CC + CN(C)c1ccc(Nc2c3ccc(NC(=O)CCN4CCCC4)cc3nc3cc(NC(=O)CCN4CCCC4)ccc23)cc1

>  <categoryLabel>
1

$$$$
>  <molecule>
Cn1ncnc1[C@H]1c2n[nH]c(=O)c3cc(F)cc(c23)N[C@@H]1c1ccc(F)cc1 + Cc1cnc(CNC(=O)c2c(=O)c3ccc(N4CCCN(C)CC4)nc3n3c2sc2ccccc23)cn1

>  <categoryLabel>
1

$$$$
>  <molecule>
CC[C@@]1(O)C(=O)OCc2c1cc1n(c2=O)Cc2cc3c(CN(C)C)c(O)ccc3nc2-1 + Cc1cnc(CNC(=O)c2c(=O)c3ccc(N4CCCN(C)CC4)nc3n3c2sc2ccccc23)cn1

>  <categoryLabel>
1

$$$$
>  <molecule>
Cc1[nH]c2ccccc2c1CCNCc1ccc(/C=C/C(=O)NO)cc1 + Cc1cnc(CNC(=O)c2c(=O)c3ccc(N4CCCN(C)CC4)nc3n3c2sc2ccccc23)cn1

>  <categoryLabel>
1

$$$$
>  <molecule>
CCc1c2c(nc3ccc(O)cc13)-c1cc3c(c(=O)n1C2)COC(=O)[C@]3(O)CC + Cc1cnc(CNC(=O)c2c(=O)c3ccc(N4CCCN(C)CC4)nc3n3c2sc2ccccc23)cn1

>  <categoryLabel>
1

$$$$
>  <molecule>
CC[C@@]1(O)C(=O)OCc2c1cc1n(c2=O)Cc2cc3c(CN(C)C)c(O)ccc3nc2-1 + Cc1[nH]c2ccc(F)cc2c1-c1nc2c3cccnc3c3ncccc3c2[nH]1

>  <categoryLabel>
0

$$$$
>  <molecule>
Cn1ncnc1[C@H]1c2n[nH]c(=O)c3cc(F)cc(c23)N[C@@H]1c1ccc(F)cc1 + Cc1[nH]c2ccc(F)cc2c1-c1nc2c3cccnc3c3ncccc3c2[nH]1

>  <categoryLabel>
0

$$$$
>  <molecule>
CCc1c2c(nc3ccc(O)cc13)-c1cc3c(c(=O)n1C2)COC(=O)[C@]3(O)CC + Cc1[nH]c2ccc(F)cc2c1-c1nc2c3cccnc3c3ncccc3c2[nH]1

>  <categoryLabel>
1

$$$$

* * *

# Test system: 616215-338-R-J1-PDC tumor spheroids, viability
# assayOverview: Anticancer human tumor 616215-338-R-J1-PDC cell line growth inhibition [GQUAD]; active = viability on the fitted dose curve at most 10% of control; inactive = the rest;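 note: spheroids exposed to agents for 7 days before readout; percent viability relative to DMSO vehicle control wells taken as 100%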
# protocolConditions: second compound 0.0316 µM; first compound 1 µM; spheroids with HUVEC and MSC
Possible outcomes: active, inactive

>  <compound>
CC1COCCN1c1cc(C2(S(C)(=N)=O)CC2)nc(-c2ccnc3[nH]ccc23)n1 (stereo not given) + Cc1cnc(CNC(=O)c2c(=O)c3ccc(N4CCCN(C)CC4)nc3n3c2sc2ccccc23)cn1

>  <target>
616215-338-R-J1-PDC tumor spheroids, viability

>  <categoryLabel>
inactive

$$$$
>  <compound>
C#Cc1c(F)ccc2cc(O)cc(-c3ncc4c(N5CC6CCC(C5)N6)nc(OCC56CCCN5CC(F)C6)nc4c3F)c12 (stereo not given) + CN(C)c1ccc(Nc2c3ccc(NC(=O)CCN4CCCC4)cc3nc3cc(NC(=O)CCN4CCCC4)ccc23)cc1

>  <target>
616215-338-R-J1-PDC tumor spheroids, viability

>  <categoryLabel>
inactive

$$$$
>  <compound>
COc1ncnc(C2CC2)c1-c1ncc2cnn(Cc3ccc(-c4nc(C(F)(F)F)cn4C(C)C)cc3)c2n1 + CN(C)c1ccc(Nc2c3ccc(NC(=O)CCN4CCCC4)cc3nc3cc(NC(=O)CCN4CCCC4)ccc23)cc1

>  <target>
616215-338-R-J1-PDC tumor spheroids, viability

>  <categoryLabel>
inactive

$$$$
>  <compound>
CC(C)(O)C1CCC(Nc2ccc3ncc(-c4cccc(C(F)(F)F)c4)n3n2)CC1 (stereo not given) + CN(C)c1ccc(Nc2c3ccc(NC(=O)CCN4CCCC4)cc3nc3cc(NC(=O)CCN4CCCC4)ccc23)cc1

>  <target>
616215-338-R-J1-PDC tumor spheroids, viability

>  <categoryLabel>
inactive

$$$$
>  <compound>
COc1cc(C2c3cc4c(cc3C(OC3OC5COC(C)OC5C(O)C3O)C3COC(=O)C23)OCO4)cc(OC)c1O (stereo not given) + Cc1cnc(CNC(=O)c2c(=O)c3ccc(N4CCCN(C)CC4)nc3n3c2sc2ccccc23)cn1

>  <target>
616215-338-R-J1-PDC tumor spheroids, viability

>  <categoryLabel>
inactive

$$$$
>  <compound>
COc1cccc2c1C(=O)c1c(O)c3c(c(O)c1C2=O)CC(O)(C(=O)CO)CC3OC1CC(N)C(O)C(C)O1 (stereo not given) + Cc1[nH]c2ccc(F)cc2c1-c1nc2c3cccnc3c3ncccc3c2[nH]1

>  <target>
616215-338-R-J1-PDC tumor spheroids, viability

>  <categoryLabel>
inactive

$$$$
>  <compound>
CC1COCCN1c1cc(C2(O)CC3CCC(C2)O3)c2cnn(-c3ccn[nH]3)c2n1 (stereo not given) + CN(C)c1ccc(Nc2c3ccc(NC(=O)CCN4CCCC4)cc3nc3cc(NC(=O)CCN4CCCC4)ccc23)cc1

>  <target>
616215-338-R-J1-PDC tumor spheroids, viability

>  <categoryLabel>
inactive

$$$$
>  <compound>
O=C(NO)c1cnc(N2CCN(S(=O)(=O)c3ccc4ccccc4c3)CC2)nc1 + Cc1[nH]c2ccc(F)cc2c1-c1nc2c3cccnc3c3ncccc3c2[nH]1

>  <target>
616215-338-R-J1-PDC tumor spheroids, viability

>  <categoryLabel>
active

$$$$
>  <compound>
C=CCn1c(=O)c2cnc(Nc3ccc(N4CCN(C)CC4)cc3)nc2n1-c1cccc(C(C)(C)O)n1 + CN(C)c1ccc(Nc2c3ccc(NC(=O)CCN4CCCC4)cc3nc3cc(NC(=O)CCN4CCCC4)ccc23)cc1

>  <target>
616215-338-R-J1-PDC tumor spheroids, viability

>  <categoryLabel>
inactive

$$$$
>  <compound>
COc1ccc([C@@H](O)c2cc(-c3ncnc4cc(N5CCOCC5)ccc34)c(F)cc2Cl)nn1 + Cc1cnc(CNC(=O)c2c(=O)c3ccc(N4CCCN(C)CC4)nc3n3c2sc2ccccc23)cn1

>  <target>
616215-338-R-J1-PDC tumor spheroids, viability

>  <categoryLabel>
inactive

$$$$
